The entries below come with measured Kb values attached.
Target: human Orexin 1 receptor (Homo sapiens, UniProt O43613)
Construct: stably expressing the full-length human Orexin 1 receptor; expressed in transfected cells; host or cells: CHO-K1 (CHO-K1/hOX1), co-expressing aequorin
Sequence (O43613 whole entry): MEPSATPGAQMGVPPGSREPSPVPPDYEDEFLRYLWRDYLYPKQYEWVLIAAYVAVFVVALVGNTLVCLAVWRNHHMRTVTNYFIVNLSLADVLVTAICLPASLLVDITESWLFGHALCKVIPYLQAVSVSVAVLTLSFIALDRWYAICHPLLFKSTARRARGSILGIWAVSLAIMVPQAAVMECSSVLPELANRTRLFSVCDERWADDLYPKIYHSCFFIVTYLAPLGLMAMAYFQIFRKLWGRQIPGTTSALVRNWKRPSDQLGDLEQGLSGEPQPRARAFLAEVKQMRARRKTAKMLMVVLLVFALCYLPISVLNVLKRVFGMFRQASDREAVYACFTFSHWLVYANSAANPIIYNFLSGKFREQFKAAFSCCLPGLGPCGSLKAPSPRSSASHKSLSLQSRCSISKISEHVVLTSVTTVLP
Assay: Assay A: OX1R IP1 (in vitro OX1R potency)
Format: cell-based
Conditions: Table 3; Orexin A concentration 50 nM
Provide only the numeric value, understood in nM.

1) CCN(C(=O)c1cc(C(F)(F)F)cnc1-n1cccn1)[C@@H](C)COc1ccc(C(F)(F)F)cn1 = 1.2
2) CC[C@@H](CNc1cnc(C(F)(F)F)cn1)N(CC)C(=O)c1nc(C)ccc1-n1nccn1 = 0.135
3) CCN(C(=O)c1ncc(C)cc1-c1ccn(C)n1)[C@@H](C)COc1ccc(C(F)(F)F)cn1 = 0.25

Task: Please give the measured Kb for this compound: CCN(C(=O)c1ncc(C)cc1-n1cccn1)[C@@H](C)COc1ccc(C(F)(F)F)cn1
Result: 0.4
